measuredEndpoint: IC50 (nM)
// return numeric value only (unit: nM, not printed)

Fetch value of IC50 on UniProt Q13547 for "Cc1cc(C)cc(C(=O)NOCCCCCC(=O)NO)c1" . 58

* * *

Exercise: state measured IC50 for each of the compounds provided.
- testedTarget: Peptide deformylase, mitochondrial (Homo sapiens, UniProt Q9HBH1)
- Sequence (Q9HBH1 whole entry): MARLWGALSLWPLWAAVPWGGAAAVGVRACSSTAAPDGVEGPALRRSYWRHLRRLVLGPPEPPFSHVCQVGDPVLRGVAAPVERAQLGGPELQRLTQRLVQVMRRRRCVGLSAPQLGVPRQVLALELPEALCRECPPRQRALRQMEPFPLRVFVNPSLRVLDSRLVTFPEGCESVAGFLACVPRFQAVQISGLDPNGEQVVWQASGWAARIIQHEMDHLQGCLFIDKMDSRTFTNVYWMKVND
// return numeric value only (unit: nM, not printed)

Fetch value of IC50 on Peptide deformylase, mitochondrial (Homo sapiens, UniProt Q9HBH1) for "CCCC[C@H](CC(=O)NO)C(=O)N1CC2(CC2)C[C@H]1C(=O)Nc1ccc(F)cn1" . 4.92

Fetch value of IC50 on Peptide deformylase, mitochondrial (Homo sapiens, UniProt Q9HBH1) for "O=C(C[C@@H](CC1CCCC1)C(=O)N1CC2(CC2)C[C@H]1C(=O)Nc1ccc(F)cn1)NO" . 5.87

Fetch value of IC50 on Peptide deformylase, mitochondrial (Homo sapiens, UniProt Q9HBH1) for "O=C(C[C@@H](CC1CCCC1)C(=O)N1CC2(CC2)C[C@H]1C(=O)Nc1ccccc1)NO" . 6.42

Fetch value of IC50 on Peptide deformylase, mitochondrial (Homo sapiens, UniProt Q9HBH1) for "Cc1ccc(NC(=O)[C@@H]2CC3(CC3)CN2C(=O)[C@@H](CC(=O)NO)CC2CCCC2)cc1" . 3.58

Fetch value of IC50 on Peptide deformylase, mitochondrial (Homo sapiens, UniProt Q9HBH1) for "O=C(C[C@@H](CC1CCCC1)C(=O)N1CC2(CC2)C[C@H]1C(=O)Nc1nccs1)NO" . 8.74

Fetch value of IC50 on Peptide deformylase, mitochondrial (Homo sapiens, UniProt Q9HBH1) for "CCCCc1ccc(-c2noc([C@@H]3CC4(CC4)CN3C(=O)[C@@H](CC(=O)NO)CC3CCCC3)n2)cc1" . 4.24

Fetch value of IC50 on Peptide deformylase, mitochondrial (Homo sapiens, UniProt Q9HBH1) for "O=C(C[C@@H](CC1CCCC1)C(=O)N1CC2(CC2)C[C@H]1C(=O)Nc1ccc(Br)cc1)NO" . 6.12

Fetch value of IC50 on Peptide deformylase, mitochondrial (Homo sapiens, UniProt Q9HBH1) for "Cc1cnc(NC(=O)[C@@H]2CC3(CC3)CN2C(=O)[C@@H](CC(=O)NO)CC2CCCC2)s1" . 2.78

Fetch value of IC50 on Peptide deformylase, mitochondrial (Homo sapiens, UniProt Q9HBH1) for "O=C(C[C@@H](CC1CCCC1)C(=O)N1CC2(CC2)C[C@H]1c1nc(-c2cnccn2)no1)NO" . 16.1

Fetch value of IC50 on Peptide deformylase, mitochondrial (Homo sapiens, UniProt Q9HBH1) for "Cc1csc(NC(=O)[C@@H]2CC3(CC3)CN2C(=O)[C@@H](CC(=O)NO)CC2CCCC2)n1" . 2.99

Fetch value of IC50 on Peptide deformylase, mitochondrial (Homo sapiens, UniProt Q9HBH1) for "O=C(C[C@@H](CC1CCCC1)C(=O)N1CC2(CC2)C[C@H]1c1nc(-c2ccc(F)cc2C(F)(F)F)no1)NO" . 4.11

Fetch value of IC50 on Peptide deformylase, mitochondrial (Homo sapiens, UniProt Q9HBH1) for "O=C(C[C@@H](CC1CCCC1)C(=O)N1CC2(CC2)C[C@H]1c1nc(-c2ccc(F)cn2)no1)NO" . 5.01

Fetch value of IC50 on Peptide deformylase, mitochondrial (Homo sapiens, UniProt Q9HBH1) for "O=C(C[C@@H](CC1CCCC1)C(=O)N1CC2(CC2)C[C@H]1c1nc(-c2ccc(C(F)(F)F)cc2Cl)no1)NO" . 6.47

Fetch value of IC50 on Peptide deformylase, mitochondrial (Homo sapiens, UniProt Q9HBH1) for "O=C(C[C@@H](CC1CCCC1)C(=O)N1CC2(CC2)C[C@H]1c1nc(-c2ccc(C(F)(F)F)cc2F)no1)NO" . 4.85

Fetch value of IC50 on Peptide deformylase, mitochondrial (Homo sapiens, UniProt Q9HBH1) for "O=C(C[C@@H](CC1CCCC1)C(=O)N1CC2(CC2)C[C@H]1c1nc(-c2ccc(C3CC3)cc2)no1)NO" . 5.01

Fetch value of IC50 on Peptide deformylase, mitochondrial (Homo sapiens, UniProt Q9HBH1) for "O=C(C[C@@H](CC1CCCC1)C(=O)N1CC2(CC2)C[C@H]1C(=O)Nc1cnccn1)NO" . 5.87
